Cited source: ChEMBL document CHEMBL1147463

Test: Murine tumor cell selectivity was measured as zone unit differential between (C38) colon adenocarcinoma and (CFU) normal bone marrow in disk diffusion soft agar colony formation assay at a concentration of 75 ug/disk
Format: functional

compound | Selectivity
CC[C@H]1C=CCC[C@@]2(C[C@@H]3CC[C@@H]4[C@H](C(=O)OCCCCCC(=O)[O-])[C@]5(CCC[C@@H](C)O5)NC(=[N+]34)N2)O1.Cl [GUANIDINO ACID] | 0
CC[C@H]1C=CCC[C@@]2(C[C@@H]3CC[C@@H]4[C@H](C(=O)OCCCCCCCCCCCCCCCCCC(=O)N(CCCN)C[C@@H](O)CCN)[C@]5(CCC[C@@H](C)O5)NC(=[N+]34)N2)O1.Cl.Cl.[Cl-] | 150
CC[C@H]1C=CCC[C@@]2(C[C@@H]3CC[C@@H]4[C@H](C(=O)OCCCCCCCCCCCCCCCC(=O)N(CCCN)C[C@@H](O)CCN)[C@]5(CCC[C@@H](C)O5)NC(=N2)N34)O1.Cl.Cl.Cl [CRAMBESCIDIN 800 TRIHYDROCHLORIDE] | -50
CC[C@H]1C=CCC[C@@]2(C[C@@H]3CC[C@H]4[C@@H](C(=O)OCCCCCCCCCCCCCCCC(=O)N(CCCN)C[C@@H](O)CCN)[C@@]5(CCC[C@@H](C)O5)NC(=[N+]34)N2)O1.Cl.Cl.[Cl-] | 0
CC[C@H]1C=CCC[C@@]2(C[C@@H]3CC[C@@H]4[C@H](C(=O)OCCCCCCCCCC(=O)N(CCCN)C[C@@H](O)CCN)[C@]5(CCC[C@@H](C)O5)NC(=[N+]34)N2)O1.Cl.Cl.[Cl-] | 100

* * *

Measured Selectivity, listed per entry.
Assay: Murine tumor cell selectivity was measured as zone unit differential between (C38) colon adenocarcinoma and (CFU) normal bone marrow in disk diffusion soft agar colony formation assay at a concentration of 75 ug/disk
Format: functional
readout-label: Selectivity

mol | numeric-readout
CC[C@H]1C=CCC[C@@]2(C[C@@H]3CC[C@@H]4[C@H](C(=O)OCCCCCCCCCC(=O)O)[C@]5(CCC[C@@H](C)O5)NC(=[N+]34)N2)O1.[Cl-] | 100
CC[C@H]1C=CCC[C@@]2(C[C@@H]3CC[C@@H]4[C@H](C(=O)OCCCCCCCCCCCC(=O)O)[C@]5(CCC[C@@H](C)O5)NC(=[N+]34)N2)O1.[Cl-] | 250
CC[C@H]1C=CCC[C@@]2(C[C@@H]3CC[C@@H]4[C@H](C(=O)OCCCCCC(=O)N(CCCN)C[C@@H](O)CCN)[C@]5(CCC[C@@H](C)O5)NC(=[N+]34)N2)O1.Cl.Cl.[Cl-] | 0

* * *

Assay: Murine tumor cell selectivity was measured as zone unit differential between (C38) colon adenocarcinoma and (CFU) normal bone marrow in disk diffusion soft agar colony formation assay at a concentration of 5 ug/disk
Assay type: functional
Listed next: entries and their corresponding Selectivity.
readout-label: Selectivity

mol | readout-label | numeric-readout
CC[C@H]1C=CCC[C@@]2(C[C@@H]3CC[C@@H]4[C@H](C(=O)OCc5ccccc5)[C@]5(CCC[C@@H](C)O5)NC(=[N+]34)N2)O1.[Cl-] | Selectivity | 100
CC[C@H]1C=CCC[C@@]2(C[C@@H]3CC[C@@H]4[C@H](C(=O)OCCC(C)C)[C@]5(CCC[C@@H](C)O5)NC(=[N+]34)N2)O1.[Cl-] | Selectivity | 0
CCOC(=O)[C@H]1[C@H]2CC[C@H]3C[C@@]4(CCC=C[C@H](CC)O4)NC(=[N+]32)N[C@@]12CCC[C@@H](C)O2.[Cl-] | Selectivity | 150
CC[C@H]1C=CCC[C@@]2(C[C@@H]3CC[C@@H]4[C@@H](C(=O)OC/C=C/c5ccccc5)[C@]5(CCC[C@@H](C)O5)NC(=[N+]34)N2)O1.[Cl-] | Selectivity | 100
CC[C@H]1C=CCC[C@@]2(C[C@@H]3CC[C@@H]4[C@H](C(=O)OCC5CC5)[C@]5(CCC[C@@H](C)O5)NC(=[N+]34)N2)O1.[Cl-] | Selectivity | 300

* * *

Assay: Murine tumor cell selectivity was measured as zone unit differential between (C38) colon adenocarcinoma and (CFU) normal bone marrow in disk diffusion soft agar colony formation assay at a concentration of 75 ug/disk
Assay type: functional

compound | Selectivity
CC[C@H]1C=CCC[C@@]2(C[C@@H]3CC[C@@H]4[C@H](C(=O)OCCCCCCCCCCCCCCCCCC(=O)O)[C@]5(CCC[C@@H](C)O5)NC(=[N+]34)N2)O1.[Cl-] [GUANIDINO ACID] | 100
CC[C@H]1C=CCC[C@@]2(C[C@@H]3CC[C@@H]4[C@@H](C(=O)[O-])[C@]5(CCC[C@@H](C)O5)NC(=[N+]34)N2)O1.Cl | 200
CC[C@H]1C=CCC[C@@]2(C[C@@H]3CC[C@@H]4[C@H](C(=O)OCCCCCCCCCCCCCCCC(=O)O)[C@]5(CCC[C@@H](C)O5)NC(=[N+]34)N2)O1.[Cl-] [CRAMBESCIDIN 657] | 200
CC[C@H]1C=CCC[C@@]2(C[C@@H]3CC[C@H]4[C@H](C(=O)OCCCCCCCCCCCCCCCC(=O)N(CCCN)C[C@@H](O)CCN)[C@@]5(CCC[C@@H](C)O5)NC(=[N+]34)N2)O1.Cl.Cl.[Cl-] | 50
CC[C@H]1C=CCC[C@@]2(C[C@@H]3CC[C@H]4[C@@H](C(=O)OCCCCCCCCCCCCCCCC(=O)O)[C@@]5(CCC[C@@H](C)O5)NC(=[N+]34)N2)O1.[Cl-] | 50
CC[C@H]1C=CCC[C@@]2(C[C@@H]3CC[C@@H]4[C@H](C(=O)OCCCCCCCCCCCCCCC(=O)N(CCCN)C[C@@H](O)CCN)[C@]5(CCC[C@@H](C)O5)NC(=[N+]34)N2)O1.Cl.Cl.[Cl-] | 150
CC[C@H]1C=CCC[C@@]2(C[C@@H]3CC[C@@H]4[C@H](C(=O)OCCCCCCCC(=O)O)[C@]5(CCC[C@@H](C)O5)NC(=[N+]34)N2)O1.[Cl-] [GUANIDINO ACID] | 200

* * *

Experiment: Murine tumor cell selectivity as zone unit differential between ([…]) murine cell line and (CFU) normal bone marrow in disk diffusion soft agar colony formation assay at 75 ug/disk.
Format: functional
The label is satisfied for Selectivity below 50 and not satisfied for Selectivity equal to or exceeding 50.

compound | class-name
CC[C@H]1C=CCC[C@@]2(C[C@@H]3CC[C@@H]4[C@H](C(=O)OCCCCCCCCCCCCCCCCCC(=O)N(CCCN)C[C@@H](O)CCN)[C@]5(CCC[C@@H](C)O5)NC(=[N+]34)N2)O1.Cl.Cl.[Cl-] | not satisfied
CC[C@H]1C=CCC[C@@]2(C[C@@H]3CC[C@@H]4[C@@H](C(=O)[O-])[C@]5(CCC[C@@H](C)O5)NC(=[N+]34)N2)O1.Cl | not satisfied
CC[C@H]1C=CCC[C@@]2(C[C@@H]3CC[C@H]4[C@@H](C(=O)OCCCCCCCCCCCCCCCC(=O)O)[C@@]5(CCC[C@@H](C)O5)NC(=[N+]34)N2)O1.[Cl-] | satisfied
CC[C@H]1C=CCC[C@@]2(C[C@@H]3CC[C@@H]4[C@H](C(=O)OCCCCCC(=O)N(CCCN)C[C@@H](O)CCN)[C@]5(CCC[C@@H](C)O5)NC(=[N+]34)N2)O1.Cl.Cl.[Cl-] | not satisfied
CC[C@H]1C=CCC[C@@]2(C[C@@H]3CC[C@@H]4[C@H](C(=O)OCCCCCCCCCCCCCCCC(=O)N(CCCN)C[C@@H](O)CCN)[C@]5(CCC[C@@H](C)O5)NC(=N2)N34)O1.Cl.Cl.Cl [CRAMBESCIDIN 800 TRIHYDROCHLORIDE] | not satisfied
CC[C@H]1C=CCC[C@@]2(C[C@@H]3CC[C@@H]4[C@H](C(=O)OCCCCCCCCCC(=O)O)[C@]5(CCC[C@@H](C)O5)NC(=[N+]34)N2)O1.[Cl-] [GUANIDINO ACID] | satisfied
CC[C@H]1C=CCC[C@@]2(C[C@@H]3CC[C@@H]4[C@H](C(=O)OCCCCCCCCCCCCCCC(=O)N(CCCN)C[C@@H](O)CCN)[C@]5(CCC[C@@H](C)O5)NC(=[N+]34)N2)O1.Cl.Cl.[Cl-] | not satisfied

* * *

Test: Murine tumor cell selectivity was measured as zone unit differential between ([…]) murine cell line and (CFU) normal bone marrow in disk diffusion soft agar colony formation assay at a concentration of 5 ug/disk
Type: functional

mol | Selectivity
CCOC(=O)[C@H]1[C@H]2CC[C@H]3C[C@@]4(CCC=C[C@H](CC)O4)NC(=[N+]32)N[C@@]12CCC[C@@H](C)O2.[Cl-] | 200
CC[C@H]1C=CCC[C@@]2(C[C@@H]3CC[C@@H]4[C@@H](C(=O)OC/C=C/c5ccccc5)[C@]5(CCC[C@@H](C)O5)NC(=[N+]34)N2)O1.[Cl-] | 50
CC[C@H]1C=CCC[C@@]2(C[C@@H]3CC[C@@H]4[C@H](C(=O)OCc5ccccc5)[C@]5(CCC[C@@H](C)O5)NC(=[N+]34)N2)O1.[Cl-] | 50
CC[C@H]1C=CCC[C@@]2(C[C@@H]3CC[C@@H]4[C@H](C(=O)OCCC(C)C)[C@]5(CCC[C@@H](C)O5)NC(=[N+]34)N2)O1.[Cl-] | -50
CC[C@H]1C=CCC[C@@]2(C[C@@H]3CC[C@@H]4[C@H](C(=O)OCC5CC5)[C@]5(CCC[C@@H](C)O5)NC(=[N+]34)N2)O1.[Cl-] | 100
